Values from patent US20230272011A1

// reported koff for each item listed
- Test target: T1, human serum albumin (human, UniProt P02768 25-609)
- T1 construct: mature; Bought protein; biotinylated in the Octet and HTRF assays; also called HSA; HuSA
- Test name: Octet biolayer interferometry, biotinylated albumin on SA sensors, pH 6.0
# output: bare number, implied unit s⁻¹

Reference set (2 entries):
- Binder: "HSA-20 (designed binder) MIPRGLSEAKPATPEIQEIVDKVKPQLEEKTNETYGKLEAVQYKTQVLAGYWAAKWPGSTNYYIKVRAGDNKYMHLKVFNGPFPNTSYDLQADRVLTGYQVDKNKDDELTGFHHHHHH"
  koff, s⁻¹: 0.00501
- Binder: "HSA-36 (designed binder) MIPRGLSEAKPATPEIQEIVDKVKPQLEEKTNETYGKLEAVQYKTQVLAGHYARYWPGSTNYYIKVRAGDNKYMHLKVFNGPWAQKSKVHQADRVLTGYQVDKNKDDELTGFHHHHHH"
  koff, s⁻¹: 0.00175

Exam item: Entry under review: HSA-31 (designed binder) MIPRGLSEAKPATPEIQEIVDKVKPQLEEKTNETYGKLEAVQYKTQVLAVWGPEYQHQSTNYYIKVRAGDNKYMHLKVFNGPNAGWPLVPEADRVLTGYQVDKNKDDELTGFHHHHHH . Reported koff?
Marked response: 0.00245

Exam item: Return reported koff; argument: HSA-41 (designed binder, also called HSA-41 parent; HSA-41 AH parent) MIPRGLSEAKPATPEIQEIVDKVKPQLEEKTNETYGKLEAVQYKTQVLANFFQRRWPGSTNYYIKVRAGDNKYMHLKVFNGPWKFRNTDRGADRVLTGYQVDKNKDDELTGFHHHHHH
Marked response: 0.00198
